Value source: patent US5288758A

Form: system (acetylcholinesterase (Homo sapiens)), quantity (IC50), values below.
One number for each entry, in µM.

Guide cases for IC50, answers given:
# chemical structure, study system, IC50 (µM)
rows = [
    ("CN(CCOCCNC(=S)NC(=O)c1cccc([N+](=O)[O-])c1)Cc1ccccc1", "acetylcholinesterase (Homo sapiens)", 0.015),
    ("CN(CCOCCNC(=S)NC(=O)c1ccc(Cl)c(Cl)c1)Cc1ccccc1", "acetylcholinesterase (Homo sapiens)", 0.055),
    ("CN(CCOCCNC(=S)NC(=O)c1ccc(Cl)cc1)Cc1ccccc1", "acetylcholinesterase (Homo sapiens)", 0.03),
    ("CN(CCCCCNC(=S)NC(=O)c1ccccc1)CC1CCCCC1", "acetylcholinesterase (Homo sapiens)", 0.05),
    ("CN(CCOCCNC(=S)NC(=O)c1ccc2ccccc2c1)Cc1ccccc1", "acetylcholinesterase (Homo sapiens)", 0.1),
]

Please examine the following record next.
Input: # input compound: COc1ccc(C(=O)NC(=S)NCCOCCN(C)Cc2ccccc2)cc1 ; wanted: its IC50
Output: 0.026
